// reported pIC50 for each item listed
- tgt: Inositol hexakisphosphate kinase 2 (Homo sapiens, UniProt Q9UHH9)
# pIC50 = -log10(concentration in molar units)

Solved entries:
COc1ccc(-c2cc(=O)c3c(O)cc(O)cc3o2)cc1	5.24
O=C1C[C@@H](c2ccc(O)c(O)c2)Oc2cc(O)cc(O)c21	4.60
O=c1cc(-c2ccc(O)cc2)oc2cc(O)cc(O)c12	5.15
COc1cc(O)c2c(=O)cc(-c3ccc(O)cc3)oc2c1	4.62
O=c1cc(-c2ccc(O)c(O)c2)oc2cccc(O)c12	5.10

Q. Quick check: pIC50 of `O=c1c(O)c(-c2ccc(O)cc2)oc2cc(O)cc(O)c12` ?
A. 5.60

Q. Quick check: pIC50 of `COc1cc(-c2oc3cc(O)cc(O)c3c(=O)c2O)ccc1O` ?
A. 6.30

----------
- Organism: Homo sapiens
- method_notes: Selectivity ratio of IC50 for human IPMK to IC50 for human IP6K2
assay_readout: Ratio IC50

COc1cc(O)c2c(=O)c(O)c(-c3ccc(O)c(O)c3)oc2c1	> 7.8
COc1cc(O)c2c(=O)cc(-c3ccc(O)cc3)oc2c1	> 1.3
O=C1C[C@@H](c2ccc(O)c(O)c2)Oc2cc(O)cc(O)c21	> 1.2
O=c1c(O)c(-c2ccc(O)cc2)oc2cc(O)cc(O)c12	1.8
O=c1cc(-c2ccc(O)cc2)oc2ccc(O)cc12	> 2.3
O=c1cc(-c2ccc(O)cc2)oc2cc(O)ccc12	> 1.6
O=c1cc(-c2ccc(O)cc2)oc2cc(O)cc(O)c12	4.1
O=c1cc(-c2ccc(O)c(O)c2)oc2cc(O)cc(O)c12	4.2
COc1ccc(-c2cc(=O)c3c(O)cc(O)cc3o2)cc1	> 5.3
O=c1cc(-c2ccc(O)c(O)c2)oc2cccc(O)c12	> 3.8

Q. Quick check: Ratio IC50 of `COc1cc(-c2oc3cc(O)cc(O)c3c(=O)c2O)ccc1O` ?
A. 4.4

Q. Quick check: Ratio IC50 of `O=c1cc(-c2ccc(O)c(O)c2)oc2ccccc12` ?
A. > 2.6

----------
- tgt: Inositol hexakisphosphate kinase 2 (Homo sapiens)
- Sequence (Q9UHH9 whole entry): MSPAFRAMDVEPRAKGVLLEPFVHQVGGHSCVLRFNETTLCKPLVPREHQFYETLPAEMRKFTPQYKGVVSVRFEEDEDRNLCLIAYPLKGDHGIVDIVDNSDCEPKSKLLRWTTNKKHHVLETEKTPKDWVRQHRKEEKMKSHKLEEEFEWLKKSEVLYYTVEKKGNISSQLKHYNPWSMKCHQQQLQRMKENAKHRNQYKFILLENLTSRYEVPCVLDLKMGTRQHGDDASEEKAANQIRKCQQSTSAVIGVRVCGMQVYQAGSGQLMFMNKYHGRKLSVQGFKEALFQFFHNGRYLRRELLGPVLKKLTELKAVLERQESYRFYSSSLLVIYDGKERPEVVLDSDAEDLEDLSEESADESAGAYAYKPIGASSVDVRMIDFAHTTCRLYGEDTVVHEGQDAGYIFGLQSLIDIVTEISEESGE
assay_readout: pIC50
# pIC50 = -log10(concentration in molar units)

Solved entries:
O=c1c(O)c(-c2cc(O)c(O)c(O)c2)oc2cc(O)cc(O)c12 [MYRICETIN]	6.15
O=c1cc(-c2ccc(O)c(O)c2)oc2cc(O)cc(O)c12 [LUTEOLIN]	5.89

// next entry
Q. Quick check: pIC50 of `O=c1cc(-c2ccc(O)c(O)c2)oc2ccccc12` ?
A. 4.94
